Values from patent US20260199492A1

assay: In vitro plasma stability experiment (compounds), without or with tPA; conditions: human, With tPA T1/2, human plasma, 37° C., initial concentration 10 μM, with rt-PA […]
Ends that are not written are not given here.
measurementName: half-life at 10 μM (min)

recordSequence: YGRKKRRQRRRKLSSIESDV [NA-1, reference compound]
readoutNumber: 3.61

----------
test: In vitro stability experiment of cell-penetrating peptides in human plasma; conditions: plasma, Without tPA T1/2, cell-penetrating peptide, human plasma, initial concentration 10 μM, without tPA
Parameter half-life at 10 μM: see the listing below.

compound: N=C(N)NCCC[C@H](NC(=O)[C@H](CCCNC(=N)N)NC(=O)[C@@H](CCCNC(=N)N)NC(=O)[C@H](CCC(=O)O)NC(=O)[C@@H](CCCNC(=N)N)NC(=O)[C@H](CCCNC(=N)N)NC(=O)[C@H](CCCCN)NC(=O)[C@H](CCCCN)NC(=O)[C@@H](CCCNC(=N)N)NC(=O)CNC(=O)[C@@H](N)Cc1ccc(O)cc1)C(=O)O [TAT-4]
valueOperator: =
half-life at 10 μM (h): 11.9
--
compound: CNC(=N)NCCC[C@H](NC(=O)[C@H](CCC(=O)O)NC(=O)[C@@H](CCCNC(=N)N)NC(=O)[C@H](CCCNC(=N)N)NC(=O)[C@H](CCCCN)NC(=O)[C@H](CCCCN)NC(=O)[C@@H](CCCNC(=N)N)NC(=O)CNC(=O)[C@@H](N)Cc1ccc(O)cc1)C(=O)N[C@@H](CCCNC(=N)N)C(=O)N[C@@H](CCCNC(=N)N)C(=O)O [TAT-6]
valueOperator: =
half-life at 10 μM (h): 2.83
--
compound: CNC(=N)NCCC[C@H](NC(=O)[C@H](CCC(N)=O)NC(=O)[C@@H](CCCNC(=N)N)NC(=O)[C@H](CCCNC(=N)N)NC(=O)[C@H](CCCCN)NC(=O)[C@H](CCCCN)NC(=O)[C@@H](CCCNC(=N)N)NC(=O)CNC(=O)[C@@H](N)Cc1ccc(O)cc1)C(=O)N[C@@H](CCCNC(=N)N)C(=O)N[C@@H](CCCNC(=N)N)C(=O)O [TAT-5]
valueOperator: >
half-life at 10 μM (h): 33.3
--
compound: N=C(N)NCCC[C@H](NC(=O)[C@H](CCCNC(=N)N)NC(=O)[C@H](CCCNC(=N)N)NC(=O)[C@H](CCC(N)=O)NC(=O)[C@H](CCCNC(=N)N)NC(=O)[C@H](CCCNC(=N)N)NC(=O)[C@H](CCCCN)NC(=O)[C@H](CCCCN)NC(=O)[C@H](CCCNC(=N)N)NC(=O)CNC(=O)[C@@H](N)Cc1ccc(O)cc1)C(=O)O [TAT-1, reference compound]
valueOperator: =
half-life at 10 μM (h): 1.52
